DC50 reference
target: HLA-A*0201 (Homo sapiens, UniProt P04439, D140Y/D185E/D98H/E176V/E277Q/G131W/G231S/I119V/I121R/I166T/I218V/L300P/L318F/N151K/N90K/P208A/P217A/Q86G/Q94H/R138H/R169H/T345S); assay: Stability of HLA-A*0201/peptide complexes (DC50) on T2 cells; type: binding; set-up: endogenous in cells; host or cells: human T2 cells (TAP-deficient); details: time for loss of 50% of HLA-A*0201/peptide complexes stabilized at t=0, 100 μM peptide, 37° C.
Ends that are not written are not given here.

The cases that follow already have their DC50 on record.
IMNDMPIYM [p58, IMNDMPIYM]; 4 h
VLLLVLAGV [p546, VLLLVLAGV]; 4 to 6 h
TLADFDPRV [p883, TLADFDPRV]; 2 to 4 h

# ---- query sequence ----
q: Answer with the recorded DC50 for the sequence listed here: VLAGVGFFI [p550, VLAGVGFFI]
a: 4 to 6 h
